All values here come from patent US20130336885A1.

Target: T1, human LgR5 ECD (amino acids 22-557 fused to His-Fc expressed in a baculovirus system, or amino acids 22-558 … (human, UniProt O75473 22-557))
T1 construct: not shown: C-terminal His-tagged Fc
T1 sequence: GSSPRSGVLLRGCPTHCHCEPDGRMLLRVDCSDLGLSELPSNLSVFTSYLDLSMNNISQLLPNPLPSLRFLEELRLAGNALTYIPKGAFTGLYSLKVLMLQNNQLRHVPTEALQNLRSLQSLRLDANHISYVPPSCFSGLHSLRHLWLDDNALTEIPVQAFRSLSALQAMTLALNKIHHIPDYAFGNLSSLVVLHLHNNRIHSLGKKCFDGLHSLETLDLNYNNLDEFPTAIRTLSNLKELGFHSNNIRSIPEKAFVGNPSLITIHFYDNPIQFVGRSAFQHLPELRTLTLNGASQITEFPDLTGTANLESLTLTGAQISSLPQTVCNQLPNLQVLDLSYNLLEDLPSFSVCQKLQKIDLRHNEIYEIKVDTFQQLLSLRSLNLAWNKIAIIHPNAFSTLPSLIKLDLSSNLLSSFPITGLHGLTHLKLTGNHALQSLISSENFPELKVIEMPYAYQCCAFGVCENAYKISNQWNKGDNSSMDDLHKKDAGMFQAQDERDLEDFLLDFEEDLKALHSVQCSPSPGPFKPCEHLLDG
Assay: BIAcore-3000 SPR, IgG captured on goat anti-human Fc, human LgR5 ECD-Fc injected, 25 C, 1:1 Langmuir model
MEASURED_PARAMETER: Kd (nM)
Give bare numbers, in nM.

Known results for binders:
h8E11.v5 (antibody, V domains shown, VH CDR graft + 71R/78A; also called hu8E11.v5) VH: EVQLVQSGAEVKKPGASVKVSCKASGYTFSAYWIEWVRQAPGQGLEWIGEILPGSDSTDYNEKFKVRVTITRDTSTSTAYLELSSLRSEDTAVYYCARGGHYGSLDYWGQGTLVTVSS VL: DIVMTQSPDSLAVSLGERATINCRASESVDNYGNSFMHWYQQKPGQPPKLLIYLASNLESGVPDRFSGSGSGTDFTLTISSLQAEDVAVYYCQQNYEDPFTFGQGTKVEIKR    14.3
h8E11.v1 (antibody, V domains shown, VH CDR graft + 71S/78V; also called hu8E11.v1) VH: EVQLVQSGAEVKKPGASVKVSCKASGYTFSAYWIEWVRQAPGQGLEWIGEILPGSDSTDYNEKFKVRVTITSDTSTSTVYLELSSLRSEDTAVYYCARGGHYGSLDYWGQGTLVTVSS VL: DIVMTQSPDSLAVSLGERATINCRASESVDNYGNSFMHWYQQKPGQPPKLLIYLASNLESGVPDRFSGSGSGTDFTLTISSLQAEDVAVYYCQQNYEDPFTFGQGTKVEIKR    5.05

// switching to the query binder
Item: chimeric monoclonal antibody 8E11 (antibody, human IgG1, V domains shown, also called ch8E11; chimeric 8E11) VH: QVQLQQSGTELMKPGASVKISCKATGYTFSAYWIEWIKQRPGHGLEWIGEILPGSDSTDYNEKFKVKATFSSDTSSNTVYIQLNSLTYEDSAVYYCARGGHYGSLDYWGQGTTLKVSS VL: NIVLTQSPASLAVSLGQRATISCRASESVDNYGNSFMHWYQQKPGQPPKLLIYLASNLESGVPARFSGSGSRTDFTLTIDPVEADDAATYYCQQNYEDPFTFGSGTKVEIKR | Kd: 3
